These entries and their values trace back to the supplement of paper PMC11316812.

Reported percentage of EdU-negative values are given for each entry in this list.
Tested on: MCF7
protocol_notes: percentage of EdU-negative (G0-arrested) nuclei per well, 72 h; higher = more G0 arrest;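 also: secreted proteins added to cultured cells, EdU pulse at the end, nuclei found by Hoechst imaging, EdU status from nuclear versus surrounding ring intensity ratio, PBS as neutral control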
experimental_parameters: protein concentration 0.03125 µM; reference: sequence is the full UniProt precursor, the tested protein was the secreted form or ectodomain

{"polymer_sequence": "MQRLCVYVLIFALALAAFSEASWKPRSQQPDAPLGTGANRDLELPWLEQQGPASHHRRQLGPQGPPHLVADPSKKQGPWLEEEEEAYGWMDFGRRSAEDEN", "target_system": "MCF7", "percentage of EdU-negative (%)": 29.3}
{"polymer_sequence": "MPWPLLLLLAVSGAQTTRPCFPGCQCEVETFGLFDSFSLTRVDCSGLGPHIMPVPIPLDTAHLDLSSNRLEMVNESVLAGPGYTTLAGLDLSHNLLTSISPTAFSRLRYLESLDLSHNGLTALPAESFTSSPLSDVNLSHNQLREVSVSAFTTHSQGRALHVDLSHNLIHRLVPHPTRAGLPAPTIQSLNLAWNRLHAVPNLRDLPLRYLSLDGNPLAVIGPGAFAGLGGLTHLSLASLQRLPELAPSGFRELPGLQVLDLSGNPKLNWAGAEVFSGLSSLQELDLSGTNLVPLPEALLLHLPALQSVSVGQDVRCRRLVREGTYPRRPGSSPKVALHCVDTRDSAARGPTIL [Q8WUA8]", "target_system": "MCF7", "percentage of EdU-negative (%)": 28}
{"polymer_sequence": "MDRAARCSGASSLPLLLALALGLVILHCVVADGNSTRSPETNGLLCGDPEENCAATTTQSKRKGHFSRCPKQYKHYCIKGRCRFVVAEQTPSCVCDEGYIGARCERVDLFYLRGDRGQILVICLIAVMVVFIILVIGVCTCCHPLRKRRKRKKKEEEMETLGKDITPINEDIEETNIA", "target_system": "MCF7", "percentage of EdU-negative (%)": 24.5}
{"polymer_sequence": "MMCGAPSATQPATAETQHIADQVRSQLEEKENKKFPVFKAVSFKSQVVAGTNYFIKVHVGDEDFVHLRVFQSLPHENKPLTLSNYQTNKAKHDELTYF", "target_system": "MCF7", "percentage of EdU-negative (%)": 26}
{"polymer_sequence": "MRALVLLLSLFLLGGQAQHVSDWTYSEGALDEAHWPQHYPACGGQRQSPINLQRTKVRYNPSLKGLNMTGYETQAGEFPMVNNGHTVQISLPSTMRMTVADGTVYIAQQMHFHWGGASSEISGSEHTVDGIRHVIEIHIVHYNSKYKSYDIAQDAPDGLAVLAAFVEVKNYPENTYYSNFISHLANIKYPGQRTTLTGLDVQDMLPRNLQHYYTYHGSLTTPPCTENVHWFVLADFVKLSRTQVWKLENSLLDHRNKTIHNDYRRTQPLNHRVVESNFPNQEYTLGSEFQFYLHKIEEILDYLRRALN", "target_system": "MCF7", "percentage of EdU-negative (%)": 24.6}
{"polymer_sequence": "MPAFNRLFPLASLVLIYWVSVCFPVCVEVPSETEAVQGNPMKLRCISCMKREEVEATTVVEWFYRPEGGKDFLIYEYRNGHQEVESPFQGRLQWNGSKDLQDVSITVLNVTLNDSGLYTCNVSREFEFEAHRPFVKTTRLIPLRVTEEAGEDFTSVVSEIMMYILLVFLTLWLLIEMIYCYRKVSKAEEAAQENASDYLAIPSENKENSAVPVEE [Q9NY72]", "target_system": "MCF7", "percentage of EdU-negative (%)": 25.4}
{"polymer_sequence": "MNCVCRLVLVVLSLWPDTAVAPGPPPGPPRVSPDPRAELDSTVLLTRSLLADTRQLAAQLRDKFPADGDHNLDSLPTLAMSAGALGALQLPGVLTRLRADLLSYLRHVQWLRRAGGSSLKTLEPELGTLQARLDRLLRRLQLLMSRLALPQPPPDPPAPPLAPPSSAWGGIRAAHAILGGLHLTLDWAVRGLLLLKTRL", "target_system": "MCF7", "percentage of EdU-negative (%)": 26.7}

---

Test system: MCF7
protocol_notes: percentage of EdU-negative (G0-arrested) nuclei per well, 72 h; higher = more G0 arrest
experimental_parameters: protein concentration 0.225 µM; reference: sequence is the full UniProt precursor, the tested protein was the secreted form or ectodomain
Reported percentage of EdU-negative values are given for each entry in this list.
observed_property: percentage of EdU-negative (%)

{"polymer_sequence": "MATHHTLWMGLALLGVLGDLQAAPEAQVSVQPNFQQDKFLGRWFSAGLASNSSWLREKKAALSMCKSVVAPATDGGLNLTSTFLRKNQCETRTMLLQPAGSLGSYSYRSPHWGSTYSVSVVETDYDQYALLYSQGSKGPGEDFRMATLYSRTQTPRAELKEKFTAFCKAQGFTEDTIVFLPQTDKCMTEQ", "output_unit": "%", "quantitative_readout": 25.1}
{"polymer_sequence": "MPRYVPLLLLLLLLRCSERGGGVNFGEKDAKVPGTWRDGVRVPGEGASWDSDRASPERRYGIVGLSQSISTKHPETSPKDSRIRENDVTADGRTTEDHITADPGTTEDSVTADPGTTEDNVTVDPGTTEGSVTADPATTKDYVSADPGTTKDSVTADPGTTENFVTADPGTTKDSITADPRTTEDSVTADPGTTKHSITVDPGTTEDSVTADPGTTKHSITADPGTTEDSVTADPGTTEDETTKHGDTHLL [E2RYF7]", "output_unit": "%", "quantitative_readout": 24.8}
{"polymer_sequence": "MRLAGPLRIVVLVVSVGVTWIVVSILLGGPGSGFPRIQQLFTSPESSVTAAPRARKYKCGLPQPCPEEHLAFRVVSGAANVIGPKICLEDKMLMSSVKDNVGRGLNIALVNGVSGELIEARAFDMWAGDVNDLLKFIRPLHEGTLVFVASYDDPATKMNEETRKLFSELGSRNAKELAFRDSWVFVGAKGVQNKSPFEQHVKNSKHSNKYEGWPEALEMEGCIPRRSTAS", "output_unit": "%", "quantitative_readout": 25.8}

---

Reported percentage of EdU-negative values are given for each entry in this list.
System: hTERT-HMEC
protocol_notes: percentage of EdU-negative (G0-arrested) nuclei per well, 72 h; higher = more G0 arrest
experimental_parameters: protein concentration 0.03125 µM; reference: sequence is the full UniProt precursor, the tested protein was the secreted form or ectodomain

{"polymer_sequence": "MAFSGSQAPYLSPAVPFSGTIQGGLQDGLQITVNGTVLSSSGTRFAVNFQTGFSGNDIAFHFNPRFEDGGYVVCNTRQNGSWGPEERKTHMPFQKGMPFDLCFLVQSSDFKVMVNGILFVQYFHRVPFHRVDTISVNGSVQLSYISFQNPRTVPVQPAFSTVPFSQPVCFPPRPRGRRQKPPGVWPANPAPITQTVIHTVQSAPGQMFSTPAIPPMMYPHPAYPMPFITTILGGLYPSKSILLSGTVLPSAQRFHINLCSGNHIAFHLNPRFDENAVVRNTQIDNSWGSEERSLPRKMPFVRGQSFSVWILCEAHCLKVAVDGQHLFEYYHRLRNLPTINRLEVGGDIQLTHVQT", "output_unit": "%", "percentage of EdU-negative": 4.97}
{"polymer_sequence": "MKSGLWYFFLFCLRIKVLTGEINGSANYEMFIFHNGGVQILCKYPDIVQQFKMQLLKGGQILCDLTKTKGSGNTVSIKSLKFCHSQLSNNSVSFFLYNLDHSHANYYFCNLSIFDPPPFKVTLTGGYLHIYESQLCCQLKFWLPIGCAAFVVVCILGCILICWLTKKKYSSSVHDPNGEYMFMRAVNTAKKSRLTDVTL [Q9Y6W8]", "output_unit": "%", "percentage of EdU-negative": 4.29}
{"polymer_sequence": "MALEKSLVRLLLLVLILLVLGWVQPSLGKESRAKKFQRQHMDSDSSPSSSSTYCNQMMRRRNMTQGRCKPVNTFVHEPLVDVQNVCFQEKVTCKNGQGNCYKSNSSMHITDCRLTNGSRYPNCAYRTSPKERHIIVACEGSPYVPVHFDASVEDST", "output_unit": "%", "percentage of EdU-negative": 4.76}

---

Reported percentage of EdU-negative values are given for each entry in this list.
Test system: MCF7
protocol_notes: percentage of EdU-negative (G0-arrested) nuclei per well, 72 h; higher = more G0 arrest
experimental_parameters: protein concentration 0.0225 µM; reference: sequence is the full UniProt precursor, the tested protein was the secreted form or ectodomain
observed_property: percentage of EdU-negative

{"polymer_sequence": "MVATKTFALLLLSLFLAVGLGEKKEGHFSALPSLPVGSHAKVSSPQPRGPRYAEGTFISDYSIAMDKIHQQDFVNWLLAQKGKKNDWKHNITQREARALELASQANRKEEEAVEPQSSPAKNPSDEDLLRDLLIQELLACLLDQTNLCRLRSR", "observed_property": "percentage of EdU-negative", "result": "26.1%"}
{"polymer_sequence": "MGPLPVCLPIMLLLLLPSLLLLLLLPGPGSGEASRILRVHRRGILELAGTVGCVGPRTPIAYMKYGCFCGLGGHGQPRDAIDWCCHGHDCCYTRAEEAGCSPKTERYSWQCVNQSVLCGPAENKCQELLCKCDQEIANCLAQTEYNLKYLFYPQFLCEPDSPKCD", "observed_property": "percentage of EdU-negative", "result": "29.3%"}
